ASSAY REMARKS: Dense specific volume of crystals (after tapping the cylinder 100 times)
Format: physicochemical
ASSAY CONDITIONS: crystal powder, after tapping 100 times
Residues, ends and D or L forms follow the SMILES beside them.
REPORTED PROPERTY: Dense specific volume (mL/g)
# number only, unit mL/g dropped from output

Look over these answered cases.
[[record]]
compound = "C[C@H](N)C(=O)N[C@@H](CCC(N)=O)C(=O)O [Example 12, L-alanyl-L-glutamine nonhydrate] (H-Ala-Gln-OH)"
unit_info = "mL/g"
value = 2.37

[[record]]
compound = "CCO.C[C@H](N)C(=O)N[C@@H](CCC(N)=O)C(=O)O [Example 1, L-alanyl-L-glutamine n-ethanolate] (H-Ala-Gln-OH)"
unit_info = "mL/g"
value = 2.08

[[record]]
compound = "CCO.C[C@H](N)C(=O)N[C@@H](CCC(N)=O)C(=O)O [Example 4 (25° C. vacuum drying), L-alanyl-L-glutamine n-ethanolate] (H-Ala-Gln-OH)"
unit_info = "mL/g"
value = 2.32

[[record]]
compound = "CCO.C[C@H](N)C(=O)N[C@@H](CCC(N)=O)C(=O)O [Example 2 (95° C. vacuum drying), L-alanyl-L-glutamine n-ethanolate] (H-Ala-Gln-OH)"
unit_info = "mL/g"
value = 1.88

[[record]]
compound = "CCO.C[C@H](N)C(=O)N[C@@H](CCC(N)=O)C(=O)O [Example 4 (95° C. vacuum drying), L-alanyl-L-glutamine n-ethanolate] (H-Ala-Gln-OH)"
unit_info = "mL/g"
value = 2.21


What value of measured Dense specific volume is listed for C[C@H](N)C(=O)N[C@@H](CCC(N)=O)C(=O)O [Example 11, L-alanyl-L-glutamine nonhydrate] (H-Ala-Gln-OH) ?
2.84

What value of measured Dense specific volume is listed for C[C@H](N)C(=O)N[C@@H](CCC(N)=O)C(=O)O.O.O [Example 7, L-alanyl-L-glutamine dihydrate] (H-Ala-Gln-OH) ?
2.73

What value of measured Dense specific volume is listed for C[C@H](N)C(=O)N[C@@H](CCC(N)=O)C(=O)O [Patent No. 4931801 (nonhydrate), L-alanyl-L-glutamine nonhydrate, reference compound] (H-Ala-Gln-OH) ?
2.66

What value of measured Dense specific volume is listed for C[C@H](N)C(=O)N[C@@H](CCC(N)=O)C(=O)O [Example 5, L-alanyl-L-glutamine nonhydrate] (H-Ala-Gln-OH) ?
2.28

What value of measured Dense specific volume is listed for C[C@H](N)C(=O)N[C@@H](CCC(N)=O)C(=O)O [Example 10, L-alanyl-L-glutamine nonhydrate] (H-Ala-Gln-OH) ?
2.59
